experiment: Saturation mutagenesis of SEQ ID NO:109: dicamba decarboxylation activity of point mutants (CO2 released), fold of backbone (Tables 7, 8, Megatable 1); conditions: decarboxylation activity (CO2 released) of point mutant vs unmutated backbone protein; backbone SEQ ID NO: 109
Could you please report measured Fold Activity for the items listed next?
Numbers only, in fold.

Examples with answers:
molecule: 47 (protein, listed as Serratia odorifera) MAKIICLEEHTLDKALVMASMPAALAQAPFLSDWGKTITDGNLPDRSRPQIEKNDLINVKGADIGRGRLDDMDEAGITMQVLSVGGFPHLISAAEGVDLNRAANDRLANAVNAHPDRFAAFATLPWAQPDAAEKELERAVKELGFKGALLNGRPSIHFLDHPDYDGLLARFNALGVPLYLHPGLPVRSVQQAYYSGFSDEVTARLSMFGWGWHHEAGIHLLRLILSGAFDKYPNLQVISGHWGEMLPFWLQRLDDSLPQAATGLRRTITQTFREQVYVTPSGMLTLPHFQFIYALLGAERILFSVDYPYQTLDGVKAFIQSLPVPEEAKEAIAFRNAERLFGLTS
numeric.result: 1.2
//
molecule: 156 (protein, Dicamba decarboxylase variant) MAQGKVALEEHFAIPETLQDSAGFVPSDYLKELQHRLLDIQDTRLKLMDAHGIETMILSLAAPAVQAIPDRRKAIEIARRANDFLAEECAKRPDRFLAFAALPMQDPDAATEELQRCVNDLGFVGALVNGFSVEGDGQTPLYYDLPQYRPFWGEVEKLDVPFYLHPRNPLPQDSRIYDGHPWLLGPTWAFAQETAVHALRLMASGLFDEHPRLNIILGHLGEGLPYMMYRIDHRIAWVHEPPRYPAKRRFMDYFNENFHITTSGNFRTQTLIDAILEIGADRILFSTDWPFENIDHAADWFNATSIAEADRLKIGRTNARRLFKLDGA
numeric.result: 1.5
//
molecule: 105 (protein, Deinococcus radiodurans) MAIDFHVHLDLYPDPVAVARACEERQLTVLSVTTTPAAWRGTLALAAGRPHVWTALGFHPEVVSERAADLPWFDRYLPETRFVGEVGLDGSPSLRGTWTQQFAVFQHILRRCEDHGGRILSIHSRRAESEVLNCLEANPRSGTPILHWYSGSVTELRRAISLGCWFSVGPTMVRTQKGAALIRSMPRDRVLTETDGPFLELDGQAALPWDVKSVVEGLSKIWQIPASEVERIVKENVSRLLGTVR
numeric.result: 0.9

Hello, I would appreciate it if you could give Fold Activity for each entry below.
1. 113 (protein, Dicamba decarboxylase variant clone: DC.4.114) MAQGKVALEEHFAIPETLQDSAGFVPGDYLKELFHRLLDIQDTRLKLMDAHGIETMILSLNAPAVQAIPDRRKAIEIARRANDVLAEECAKRPDRFLAFAALPLQDPDAATEELQRCVNDLGFVGALVNGFSQEGDGQTPLYYDLPQYRPFWGEVEKLDVPFYLHPRNPLPQDSRIYDGHPWLLGPTWAFAQETAVHALRLMASGLFDEHPRLNIILGHMGEGLPYMMWRIDHRVAWVKLPPRYPAKRRFMDYFNENFHITTSGNFRTQTLIDAILEIGADRILFSTDWPFENIDHASDWFNATSIAEADRVKIGRTNARRLFKLDGA
2. 141 (protein, Dicamba decarboxylase variant) MAQGKVALEEHFAIPETLNDSAGFVPGDYWKELQHRLLDIQDTRLKLMDAHGIETMILSLAAPAVQAIPDRRKAIEIARRANDMLAEECAKRPDRFLAFAALPLQDPDAATEELQRCVNDLGFVGALVNGFSQEGDGQTPLYYDLPQYRPFWGEVEKLDVPFYLHPRNPLPQDSRIYDGHPWLLGPTWAFAQETAVHALRLMASGLFDEHPRLNIILGHMGEGLPYMMYRIDHRIAWVHEPPRYPAKRRFMDYFNENFHITTSGNFRTQTLIDAILEIGADRILFSTDWPFENIDHAADWFNATSIAEADRVKIGRTNARRLFKLDLD
3. 57 (protein, Collimonas fungivorans) MAKLICVEEHVLDPAVGAATQSLVRAEAPYLPDWGSRVLDGRHVADRSRPHVIAPSESARKALEMGEPRLADMDAASIDMQVLSYGGFPQLLPAAQAIDLNRAANDKLALAAQAHPARFAGFATLPWQAPEAAARELERAVKQLGLKGALINGRPGDTFLDDARYAPILAAFDELKVPLYVHPGLPLPAVQAPYYGGFERELSARLAMFAWGWHNEAGIQVVRMLLAGVFDRHPRLQLISGHWGEMVPFFLQRLEDSIPQEASGLQRPIVQTYREHVYISPSGMFTLPHFQFIHALMGAQRILYSIDYPYQSLDGARAFIERLPISDTDKALIAHRNAERLLHL
4. 39 (protein, listed as Agrobacterium fabrum) MAQGKVALEEHFAIPETLQDSAGFVPGDCWTELQHRLLDIQDTRLKLMDAHGIETMILSLNAPAVQAIPDKTKAIEIARRANDALAEECAKRPDRFLAFAALPLQDPDAATQELRRCVNDLGFVGALVNGFSQEGDGQTPLYYDLPQYRPFWGEVEKLDVPFYLHPRNPLPQDSRIYDGHPWLLGPTWAFAQETAVHALRLMASGLFDEHPRLDIILGHMGEGLPYMMWRIDHRNAWVKLPPRYPAKRRFVDYFNENFHITTSGNFRTQTLIDAILEIGADRILFSTDWPFENIDHASDWFHATSIAEADRVKIGRTNARRLFKLDGR
5. 30 (protein, Enterobacter aerogenes) MARGKIALEEHVSTPENNRLWDSTGEANRNGSEYMQDVERRLLDRSIQLEEMAQRNIDHVILSLTSPGAQSILDKAKAVSFARDTNDFIVDNYVKPNPDKFSAFATLALQNPEAAAEELERAVKKLGMKGALINGYTNVKDSEHGLYLDDESMLVFWDKVNELNVPVYLHPREPLEGPARGIYTGYESLIGSAWGFAQETAVHAIRLMMSGLFDRYPNLNLVLGHLGEGLVHMLPRTQHRLYRQRFGCGLGKAEKPLMHYLQNNFIVTTSGHFNTHSLNNAIEVMGADRVMFSVDYPYEDIHQACDWFDPLEMDEGLKEKIAWGNASRVFNIK

1.4
1.1
2
1.6
2
